All figures here come from patent US12448382B2.

- study-target: human recombinant JAK2 protein (Homo sapiens)
- Construct: purchased Carna Biosciences 08-045
- Sequence (O60674 826-1132 limits assumed): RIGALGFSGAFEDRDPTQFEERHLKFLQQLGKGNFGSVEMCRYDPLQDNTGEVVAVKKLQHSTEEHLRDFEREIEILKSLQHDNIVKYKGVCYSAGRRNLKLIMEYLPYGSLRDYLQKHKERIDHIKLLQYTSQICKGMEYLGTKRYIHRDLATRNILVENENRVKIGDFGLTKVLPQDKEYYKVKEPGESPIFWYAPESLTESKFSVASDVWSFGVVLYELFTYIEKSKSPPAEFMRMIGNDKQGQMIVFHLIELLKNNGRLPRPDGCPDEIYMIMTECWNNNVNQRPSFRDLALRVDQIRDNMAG
- assay-overview: JAK2 Inhibition Assay (HTRF kinase assay)
- Assay type: biochemical
- measurement-context: human recombinant JAK2, 2.5 μM ATP substrate solution
measure-name: IC50
Write the numeric value and follow it with the unit.

Solved entries:
compound=Cn1cc(Nc2ncc(Cl)c(N3C[C@]4(C)CN(c5ccncn5)C[C@]4(C)C3)n2)cn1 measure_name=IC50 result="0.9 nM"
compound="Cn1cc(Nc2ncc(Cl)c(N3C[C@@]4(C)CN(CC#N)C(=O)[C@@]4(C)C3)n2)cn1 (racemic)" measure_name=IC50 result="4.1 nM"
compound=Cn1cc(Nc2ncc(Cl)c(N3C[C@]4(C)CN(Cc5cc[nH]n5)C[C@]4(C)C3)n2)cn1 measure_name=IC50 result="16 nM"

Now look at this one.
Task: For the compound "Cn1cc(Nc2nccc(N3C[C@]4(C)CN(C(=O)NCC#N)C[C@]4(C)C3)n2)cn1" , what IC50 is on record?
Result: 25 nM

---

- study-target: human recombinant JAK2 protein (Homo sapiens)
- Construct: purchased Carna Biosciences 08-045
- assay-overview: JAK2 Inhibition Assay (HTRF kinase assay)
- Type: biochemical
- measurement-context: human recombinant JAK2, 2.5 μM ATP substrate solution
measure-name: log10 of IC50 (log10 of the value in nM)
Recorded IC50 (log10, nM)

molecule="Cn1cc(Nc2ncc(Cl)c(N3C[C@@H]4CN(Cc5ccno5)C[C@]4(C)C3)n2)cn1 (racemic) [Compound 74]" study_target="human recombinant JAK2 protein (Homo sapiens)" measure_name="log10 of IC50" numeric_readout=0.38

Task: If you can, please state the reported log10 of IC50 value of Cn1cc(Nc2ncc(Cl)c(N3C[C@]4(C)CN(C(=O)C5CNC5)C[C@]4(C)C3)n2)cn1 [Compound 38] .
Result: 1.70

Task: Next record, please: Cn1cc(Nc2ncc(Cl)c(N3C[C@]4(C)CN(C(=O)CO)C[C@]4(C)C3)n2)cn1 [Compound 35]
Result: 0.52

Task: Also check CCC(=O)N1C[C@@]2(C)CN(c3nc(Nc4cnn(C)c4)ncc3Cl)C[C@@]2(C)C1 [Compound 36]
Result: 0.61

Task: // next record C[C@@]12CN(C(=O)CC#N)C[C@]1(C)CN(c1nc(Nc3cn[nH]c3)ncc1Cl)C2 [Compound 28]
Result: -0.40

Task: What do you get for COCC(=O)N1C[C@@]2(C)CN(c3nc(Nc4cnn(C)c4)ncc3Cl)C[C@@]2(C)C1 [Compound 37] ?
Result: 1.18

Task: Same question for C[C@@]12CN(C(=O)C3CC3)C[C@]1(C)CN(c1nc(Nc3ccc(C(=O)N4CCOCC4)nc3)ncc1Cl)C2 [Compound 53] please.
Result: 0.58

---

Listing: log10(IC50) of selected compounds
- study-target: human recombinant TYK2 protein (Homo sapiens, UniProt P29597)
- Construct: purchased Carna Biosciences 08-147
- Sequence (P29597 871-1187 limits assumed): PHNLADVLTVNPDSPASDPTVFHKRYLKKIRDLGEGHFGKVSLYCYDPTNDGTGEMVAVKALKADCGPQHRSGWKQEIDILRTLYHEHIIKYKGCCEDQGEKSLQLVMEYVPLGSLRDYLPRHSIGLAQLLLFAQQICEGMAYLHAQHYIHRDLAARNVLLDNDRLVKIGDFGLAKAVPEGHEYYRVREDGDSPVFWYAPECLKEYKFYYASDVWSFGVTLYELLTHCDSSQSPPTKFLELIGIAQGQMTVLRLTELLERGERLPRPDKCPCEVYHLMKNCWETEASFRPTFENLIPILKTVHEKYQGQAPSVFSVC
- assay-overview: TYK2 Inhibition Assay (HTRF kinase assay)
- Format: biochemical
- measurement-context: human recombinant TYK2, 11.25 μM ATP substrate solution
All values: base-10 log of IC50 in nM.

Use these answered entries as a reference point.
compound=Cn1cc(Nc2nccc(N3C[C@]4(C)CN(CCC#N)C[C@]4(C)C3)n2)cn1 study_target="human recombinant TYK2 protein (Homo sapiens, UniProt P29597)" numeric_readout=2.27
compound=Cn1cc(Nc2ncc(Cl)c(N3C[C@]4(C)CN(CC(F)(F)F)C[C@]4(C)C3)n2)cn1 study_target="human recombinant TYK2 protein (Homo sapiens, UniProt P29597)" numeric_readout=-0.40
compound=COc1cnc(Nc2cnn(C)c2)nc1N1C[C@]2(C)CN(C(=O)CC#N)C[C@]2(C)C1 study_target="human recombinant TYK2 protein (Homo sapiens, UniProt P29597)" numeric_readout=1.75

Task: Given the entry "C[C@@]12CN(C(=O)C3CC3)C[C@]1(C)CN(c1nc(Nc3cc[nH]n3)ncc1Cl)C2" , what log10(IC50) was observed with human recombinant TYK2 protein (Homo sapiens, UniProt P29597)?
Result: 1.62

Task: Queued: "COCC(=O)N1C[C@@]2(C)CN(c3nc(Nc4cnn(C)c4)ncc3Cl)C[C@@]2(C)C1"
Result: 1.08

Task: Follow-up entry: "C[C@@H](O)Cn1cc(Nc2ncc(Cl)c(N3C[C@]4(C)CN(C(=O)C5CC5)C[C@]4(C)C3)n2)cn1"
Result: 0.20

---

- study-target: human recombinant TYK2 protein (Homo sapiens)
- Construct: purchased Carna Biosciences 08-147
- assay-overview: TYK2 Inhibition Assay (HTRF kinase assay)
- Assay type: biochemical
- measurement-context: human recombinant TYK2, 11.25 μM ATP substrate solution
Criterion: IC50 strictly less than 4 nM. Met: met. Not met: not met.

See these solved cases before continuing.
compound=Cn1cc(Nc2ncc(Cl)c(N3C[C@@H]4CN(C(=O)C5CC5)C[C@]4(C)C3)n2)cn1 study_target="human recombinant TYK2 protein (Homo sapiens)" class_name=met
compound=CCNC(=O)c1ccc(Nc2nccc(N3C[C@]4(C)CN(C(=O)C5CC5)C[C@]4(C)C3)n2)cc1 study_target="human recombinant TYK2 protein (Homo sapiens)" class_name="not met"

Task: Hello, I'm reviewing records and need to know if IC50 of "Cn1cc(Nc2ncc(Cl)c(N3C[C@]4(C)CN(Cc5cc[nH]n5)C[C@]4(C)C3)n2)cn1" is below 4 nM. Could you check?
Result: not met

Task: Input "Cn1cc(Nc2ncc(Cl)c(N3C[C@]4(C)CN(C(=O)C5(O)CC5)C[C@]4(C)C3)n2)cn1"
Result: not met

Task: # iterate: "Cn1cc(Nc2ncc(F)c(N3C[C@]4(C)CN(CC(F)F)C[C@]4(C)C3)n2)cn1"
Result: not met

Task: Subsequent entry: "Cn1cc(Nc2ncc(Cl)c(N3C[C@]4(C)CN(C(=O)[C@H]5CC5(F)F)C[C@]4(C)C3)n2)cn1"
Result: met

Task: Another compound to check: CCNC(=O)c1ccc(Nc2ncc(F)c(N3C[C@]4(C)CN(C(=O)C5CC5(F)F)C[C@]4(C)C3)n2)cc1 (stereo partly drawn)
Result: met

Task: # repeat for "Cn1cc(Nc2ncc(Cl)c(N3C[C@]4(C)CN(C(=O)C(C)(C)C#N)C[C@]4(C)C3)n2)cn1"
Result: not met

Task: // query: "Cn1cc(Nc2ncc(Cl)c(N3C[C@]4(C)CN(Cc5ccno5)C[C@]4(C)C3)n2)cn1"
Result: met

Task: What about "CNC(=O)c1ccc(Nc2ncc(Cl)c(N3C[C@]4(C)CN(C(=O)C5CC5)C[C@]4(C)C3)n2)cn1" ?
Result: met

Task: Record: "Cn1cc(Nc2ncc(Cl)c(N3C[C@]4(C)CN(CC#N)C[C@]4(C)C3)n2)cn1"
Result: met

Task: Moving on to Cc1cnc(Nc2cnn(C)c2)nc1N1C[C@@H]2CN(C(=O)[C@@H]3CC3(F)F)C[C@]2(C)C1 (racemic)
Result: met

Task: Item: "Cc1noc(CN2C[C@@]3(C)CN(c4nc(Nc5cnn(C)c5)ncc4Cl)C[C@@]3(C)C2)n1"
Result: not met

Task: # iterate: "Cn1cc(Nc2ncc(Cl)c(N3C[C@]4(C)CN(Cc5cn[nH]c5)C[C@]4(C)C3)n2)cn1"
Result: not met

Task: Now consider "CCOC(=O)N1C[C@@]2(C)CN(c3ccnc(Nc4cnn(C)c4)n3)C[C@@]2(C)C1" .
Result: not met

---

- study-target: human recombinant JAK2 protein (Homo sapiens)
- Construct: purchased Carna Biosciences 08-045
- assay-overview: JAK2 Inhibition Assay (HTRF kinase assay)
- Type: biochemical
- measurement-context: human recombinant JAK2, 2.5 μM ATP substrate solution
Lab note: compare IC50 with 2 nM, writing YES if less and NO if equal or more.

Would you please look over these solved cases?
molecule=Cn1cc(Nc2ncc(Cl)c(N3C[C@]4(C)CN(C(=O)C5CC5)C[C@]4(C)C3)n2)cn1 class_name=NO
molecule=Cn1cc(Nc2ncc(Cl)c(N3C[C@@]4(C)CN(S(C)(=O)=O)C[C@@]4(C)C3)n2)cn1 class_name=YES
molecule="Cn1cc(Nc2ncc(Cl)c(N3C[C@@H]4CN(C(=O)CC#N)C[C@]4(C)C3)n2)cn1 [Compound 88]" class_name=YES
molecule=CN1CCN(C(=O)c2ccc(Nc3ncc(Cl)c(N4C[C@]5(C)CN(C(=O)C6CC6)C[C@]5(C)C4)n3)cn2)CC1 class_name=NO
molecule=Cn1cc(Nc2ncc(Cl)c(N3C[C@]4(C)CN(CC#N)C[C@]4(C)C3)n2)cn1 class_name=YES
molecule=Cn1cc(Nc2ncc(Cl)c(N3C[C@H]4CN(C(=O)[C@@H]5CC5(F)F)C[C@H]4C3)n2)cn1 class_name=NO

Continue with the next molecule.
Task: Item "Cn1cc(Nc2ncc(Cl)c(N3C[C@]4(C)CN(C(=O)C5(O)CC5)C[C@]4(C)C3)n2)cn1" : IC50 beneath 2 nM, strictly?
Result: NO
